B1: tRNA (parent)
chain: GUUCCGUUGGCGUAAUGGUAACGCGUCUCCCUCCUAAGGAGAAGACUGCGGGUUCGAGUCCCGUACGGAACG

# Variants of: B1
# test.description: yeast fitness relative to wild type (ratio to wild type); higher = fitter; tRNA-Arg(CCU), competitive growth, 37 C, YPD
Variants at the floor of the assay were thinned out.
Label 1 (yes) when yeast fitness is at or above 0.7; otherwise label 0 (no).

C22U U53A; 0 (no)
C11G U59A; 0 (no)
G9A U16C A20G A42G; 0 (no)
U8C U28G C46G C49U A69C; 0 (no)
G25U A36U C61U; 0 (no)
A40G C46G U53G U64G; 0 (no)
U3C G6A G18C C30U C31U G48A C55G A65U; 0 (no)
A15U A40G; 0 (no)
A21C A42U G44C U53C; 0 (no)
U35C A40C; 1 (yes)

Query: Decide: yeast fitness of G23A A42U C61G U64A >= 0.7?
Reply: 0 (no)

Query: Decide: yeast fitness of U2A C11G U19C >= 0.7?
Reply: 0 (no)

Query: Decide: yeast fitness of U8C C27G G39C >= 0.7?
Reply: 0 (no)

Query: Decide: yeast fitness of G9A A40C G68A >= 0.7?
Reply: 0 (no)

Query: Decide: yeast fitness of C4U G6A G44C A69U A70G >= 0.7?
Reply: 0 (no)

Query: Decide: yeast fitness of C24U U54A >= 0.7?
Reply: 0 (no)

Query: Decide: yeast fitness of U3G G44C C55G >= 0.7?
Reply: 0 (no)
